Quick reference for MIC among some molecules
system: S. aureus HAV#031, c-ermA; experiment: MIC by broth microdilution (CLSI); type: cell-based; settings: Staphylococcus aureus, 24 h, read-out: MIC S. aureus HAV#031, c-ermA
Where a name gives a salt, the structure may show the parent alone.
measurement.label: MIC (µg/mL)

| molecule | val |
| --- | --- |
| CC(C)C[C@@H]1CCO[C@@H]2[C@@H](C1)CN(C)[C@@H]2C(=O)N[C@H]1C2OC(SCC/C=C\[C@H]1C)C(O)C(O)C2O (single isomer, unassigned) [FSA1508001, formate] | 0.5 |
| CC(C)C[C@@H]1CCO[C@@H]2[C@H](CN[C@@H]2C(=O)N[C@@H]2C/C=C\CCS[C@H]3O[C@H]2[C@H](O)[C@H](O)[C@H]3O)C1 [FSA1507013, formate] | 4 |
| CC(C)C[C@@H]1CCO[C@@H]2[C@@H](C1)CN(C)[C@@H]2C(=O)N[C@@H]1C/C=C\CCS[C@H]2O[C@H]1[C@H](O)[C@H](O)[C@H]2O [FSA1508003, formate] | 2 |
| CC(C)C[C@@H]1CCO[C@@H]2[C@H](CN[C@@H]2C(=O)N[C@H]2C3OC(SCC/C=C\[C@H]2C)C(O)C(O)C3O)C1 (single isomer, unassigned) [FSA1507066, formate] | 0.5 |
